- System: RXRa DBDmut IVT, anti-RXR (DBD mutation: RXRa K156A/R161A, NR concentration 90 nM)
- test.name: PBM binding z-score (relative to random genomic background probes); higher = stronger binding; sequences stand for … in GC…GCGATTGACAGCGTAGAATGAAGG
measure: PBM binding z-score
Please give only the number in your answer, with no unit.

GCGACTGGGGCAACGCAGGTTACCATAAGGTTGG
-0.722

Q: Assign PBM binding z-score to the following record: CTTGAAAGGTCGTGCTCAGGTGAGTATACCAAAC
Result: 2.21

Q: For the sequence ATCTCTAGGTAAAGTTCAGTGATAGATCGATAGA , give its measured PBM binding z-score value.
Result: 1.56

Q: Indicate the recorded PBM binding z-score value for this sequence: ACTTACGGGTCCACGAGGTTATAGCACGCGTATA
Result: 3.07

* * *

- Test system: VDR:RXRa (NR concentration 270 nM, RXRa partner concentration 90 nM)
- test.name: PBM binding z-score (relative to random genomic background probes); higher = stronger binding; sequences stand for … in GC…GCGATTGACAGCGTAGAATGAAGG
Overview of recorded PBM binding z-score for various sequences
// print number alone

Solved cases (4 shown):
CGTCCAAGGTCAATGCTAGGTCAGTGAAAGCATT
4.81
ATCTCTAGGGAAGACTCAGTTCAGTGAAGAACGC
0.408
CCTACTGGGCCCAAAAGGTCATTGATGCCGATAA
4.63
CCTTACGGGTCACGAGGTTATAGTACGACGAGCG
5.35

Q: Supply measured PBM binding z-score of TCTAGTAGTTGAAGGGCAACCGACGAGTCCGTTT in your reply.
Result: 0.266

Q: Input TCTTGTAGATCAAGCTGGTTAAGAAAGCCTGAGT , output reported PBM binding z-score.
Result: 0.112

Q: Please list PBM binding z-score recorded for the sequence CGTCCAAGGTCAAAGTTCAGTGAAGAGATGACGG
Result: 5.84

Q: Output measured PBM binding z-score for this item: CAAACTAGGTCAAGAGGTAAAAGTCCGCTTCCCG
Result: 2.17

Q: Read the entry CCTATTGGGCCATCAGGTCATTGATATCAACGTT and write its reported PBM binding z-score.
Result: 2.12

Q: Supply reported PBM binding z-score belonging to this sequence: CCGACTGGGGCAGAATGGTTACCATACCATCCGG
Result: -0.638

Q: Specify reported PBM binding z-score for the sequence shown: CCTACTGGGCCAAAAAGGTCATTGAAGCCGATAA
Result: 4.54

Q: Name the recorded PBM binding z-score of the item ATCTCTAGGTAAAGAGAGTTCAGTGAATGCAAAT in your answer.
Result: 3.33

* * *

- Test system: PPARg:RXRa DBDmut IVT, anti-RXR (DBD mutation: RXRa K156A/R161A, NR concentration 270 nM, RXRa partner concentration 90 nM)
- test.name: PBM binding z-score (relative to random genomic background probes); higher = stronger binding; sequences stand for … in GC…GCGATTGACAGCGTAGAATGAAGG
Please use the following PBM binding z-score ranges when assigning a class: low: < 1; intermediate: ≥ 1 and < 3; high: ≥ 3

Past entries and their recorded results:
GCTGCTAGGTCAACTGATGGTCCGCTAAAGCTCG
high
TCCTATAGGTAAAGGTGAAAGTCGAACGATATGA
intermediate
ACTATTAGTTGAGACGAGGGCAACCTATAGGTTG
low
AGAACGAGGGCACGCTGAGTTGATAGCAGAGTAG
high
TCATATAGGTAAAGGTGAAAGTCGAACGATATGA
high

Q: Hi, small favor: classify CTCGAAAGGTCTGTTGAGGTGAGTATACGGATAA by its PBM binding z-score when you get a moment.
Result: low

Q: Please indicate the class for CGAACTAGGTCAAGGACGGTGAATCTCCGCACGC based on its PBM binding z-score.
Result: high

Q: Input CCCACTGGGGCATAAGGTTACCATAAGCCAGCCC ; output its category
Result: high

Q: The entry to classify is ATCGAAAGTTCGAAGGTGAGTATACCCACCCGAA ; which class holds it?
Result: low

Q: Which of the defined bands does the recorded PBM binding z-score of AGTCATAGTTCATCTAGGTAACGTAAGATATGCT sit within?
Result: low

* * *

- Tested on: RARg:RXRa (NR concentration 270 nM, RXRa partner concentration 90 nM)
- test.name: PBM binding z-score (relative to random genomic background probes); higher = stronger binding; sequences stand for … in GC…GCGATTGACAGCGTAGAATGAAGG
Below, each entry is listed alongside its reported PBM binding z-score.
Lab note: jot down the number only; don't add units.

Recorded results for 4 sequences are shown here.
CCGAGCAGGCCAATCTGGGTCACTCAAGGCTTGA
1.25
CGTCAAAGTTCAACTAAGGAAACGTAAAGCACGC
5.97
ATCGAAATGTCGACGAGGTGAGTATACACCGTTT
0.712
TCGAGTAGGTGAGTCGGGGCATTCAGCCAACATA
-0.294

Q: Output reported PBM binding z-score of the sequence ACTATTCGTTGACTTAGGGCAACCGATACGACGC on RARg:RXRa (NR concentration 270 nM, RXRa partner concentration 90 nM).
Result: 0.792

Q: Under RARg:RXRa (NR concentration 270 nM, RXRa partner concentration 90 nM): report PBM binding z-score of TCTTGTAGAGCAATAGAGGTTAAGAAAGTGCGCT .
Result: 0.413

Q: # return PBM binding z-score of TCTTGTAGATCAACAGGAAGTTAAGAAAGATCGA (system: RARg:RXRa (NR concentration 270 nM, RXRa partner concentration 90 nM))
Result: -0.328

Q: Jot down PBM binding z-score (RARg:RXRa (NR concentration 270 nM, RXRa partner concentration 90 nM)) of CAACCTAGGTCAAAGGTCAAAGTCGAGCCAACCA .
Result: 9.2

* * *

- System: LXRa homodimer (NR concentration 270 nM)
- test.name: PBM binding z-score (relative to random genomic background probes); higher = stronger binding; sequences stand for … in GC…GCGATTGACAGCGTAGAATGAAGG
Classes based on PBM binding z-score: low bracket = under -0.2, middle bracket = from -0.2 up to 0.7, high bracket = 0.7 and over

Solved entries:
TTACCAAGGTAAAGGTCGTTGATCCCTCTGTAGA
middle bracket
GTTGCTAGGTCAACTGATGGTCAGCTAAAGCTCG
high bracket
TATACAGGGTCAAAGGCCAGAGTGCGAATGTCGA
high bracket
AATACAGGGCCACTAGGCCAGAGTAGGTACGAAT
low bracket
TCATATAGGTAAATGATAGGTGAAAGTCCGATCT
middle bracket

Q: Which class does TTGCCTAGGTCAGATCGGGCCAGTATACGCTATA fall in?
Result: low bracket

Q: Form field 'band' for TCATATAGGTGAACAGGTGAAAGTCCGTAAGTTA
Result: middle bracket

Q: Field: class (PBM binding z-score) — entry: ATCTCTAGGTAACCAAGTTCAGGGAATGCCGAAC
Result: high bracket

Q: Could you tell me which band ACAGACAGGTGAGTTAAGGTAACTCAGCTGGACG belongs to?
Result: low bracket

Q: For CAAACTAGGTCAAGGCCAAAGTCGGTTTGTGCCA , which PBM binding z-score bin applies?
Result: middle bracket

* * *

Let's look at some sequences and their measured PBM binding z-score.
- Tested on: RXRa homodimer (NR concentration 180 nM)
- test.name: PBM binding z-score (relative to random genomic background probes); higher = stronger binding; sequences stand for … in GC…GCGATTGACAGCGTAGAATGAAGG
Lab note: write the figure by itself, no unit.

Below, each entry is followed by its recorded PBM binding z-score result.
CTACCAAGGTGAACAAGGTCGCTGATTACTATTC
1.8
ATCTCTAGCTAACAAGTTCAGTGAAAGAGAGGAC
0.529
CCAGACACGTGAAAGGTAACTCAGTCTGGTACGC
0.263

Q: Fill in reported PBM binding z-score for this entry: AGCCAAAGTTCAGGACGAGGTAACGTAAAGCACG
Result: 3.05

Q: Identify PBM binding z-score associated with the sequence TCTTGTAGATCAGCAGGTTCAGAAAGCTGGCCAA
Result: 0.303

Q: Consider the sequence TAGCCTATGTCATGCGGGCCAGTATAGTGTCGGC . State its measured PBM binding z-score.
Result: 0.0276

Q: Consider the sequence AGTCAAAGTTCAGGACGATGTAACGTAAAGCACG and give its recorded PBM binding z-score.
Result: 2.53

Q: Give me measured PBM binding z-score, please, for this sequence: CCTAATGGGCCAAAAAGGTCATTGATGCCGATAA
Result: 4.45

Q: Please give measured PBM binding z-score of the following entry: GCTCGGAGGACATGGTCAGAGCTTTGTCCGTAGA
Result: -0.444

Q: Answer with the recorded PBM binding z-score of CAAACTAGGTCATAGAGGTCAAAGTCCGTGCGTA only.
Result: 7.64

Q: Tell me PBM binding z-score reported for CAAACTAGGTCACGAACGGTCAAAGTCGAATGAC
Result: 4.56

Q: Read the entry CCGTCTGGGGCAGAAAGGTTACCATACCATCCGG and write its reported PBM binding z-score.
Result: 1.37
